molecular target: Δ-X4; assay: flow cytometry, scFv-Fc on transfected 293T cells, FITC anti-human IgG
measurement_label: reactivity (MFI of chimeric receptor/MFI of wild type CXCR4 x 100%)
Enter your answer as a number in %; do not include the unit.

Study these solved cases before continuing.
binder	test_value
2N-Fc (Fc fusion, part only; not given: linker and human IgG1 hinge-Fc, not shown: another chain or arm of the molecule; a dimerising Fc or GST; small tags and cut ends) VH: EVQLVESGGGVVQPGRSLRLSCAASGFTFSSYGMHWVRQAPGKGLEWVAVISYDGSNKYYADSVKGRFTISRDNSKNTLYLQVSSLRAEDTAVYYCVRDLVAAAGTAFDIWGQGTTVTVSS VL: QPVLTQPRSVSGSPGQSVTISCTGTISDVGGHNFVSWYQQNPGKAPKLIIFEVTKRPAGVPDRFSGSKSGNTASLTVSGLQAEDEGEYYCSSYGGSNDVIFGGGTKLSVL	-1.6
33-Fc (Fc fusion, part only; not given: linker and human IgG1 hinge-Fc, not shown: another chain or arm of the molecule; a dimerising Fc or GST; small tags and cut ends) VH: QVTLKESGGGVVQPGRSLRLSCAASGFTFTNYGLHWVRQAPGKGLEWVAVISHDGTKKYYADSVKGRFTISRDSSENTLYLQMNSLRPEDSALYYCARDGGYCSGGRCYSYGMDVWGQGTTVTVSS VL: QSVLTQPPSASGTPGQRVTISCSGSRSNIGSNTVNWYQQLPGTAPKLLIYTNNQRPSGVPDRFSGSKSGTSASLAITGLQAEDEADYYCLSFDSSLTSYVFGTGTKVTVL	3.1

Query: Entry 6R-Fc (Fc fusion, part only; not given: VH-VL linker, hinge and IgG1 Fc, not shown: another chain or arm of the molecule; a dimerising Fc or GST; small tags and cut ends) VH: QVQLQQSGPGLVKPSQTLSLTCAVSGDSVSSNFVAWNWIRQSPSRGLEWLGRTYYRSRWYNDYAVSVQSRIRVTPDTSKNQFSLHLDSVTPEDTAVYYCARGQHSGFDFWGQGTLVTVSS VL: QSVLTQPPSVSKGLRQTATLTCTGNSNNVGNQGAAWLQQHQGHPPKLLSYRNNNRPSGISERFSASRSGNTASLTITGLQPEDEADYYCSAWDNRLKTYVFGTGGKVTVL has what reactivity (MFI of chimeric receptor/MFI of wild type CXCR4 x 100%)?
Result: 16.6

Query: Another: 20-Fc (Fc fusion, part only; not given: linker and human IgG1 hinge-Fc, not shown: another chain or arm of the molecule; a dimerising Fc or GST; small tags and cut ends) VH: EVQLVQSGGGLVQPGGSLRLSCAASGFTFSSYAMSWVRQAPGKGLEWVANIKQDGSEKYYVDSVKGRFTISRDNAKNSLYLQMNSLRAEDTAVYYCARDQVSGITIFGGKWRSPDVWGQGTTVTVSS VL: SSELTQDPAVSVALGQTVRITCQGDSLRSYYASWYQQKPGQAPVLVIYGKNNRPSGIPDRFSGSKSHNTAYLTITGAQAEDEADYFCNSRSGSQRVFGGGTKLTVL
Result: 9.6
